property: melting point

Worked cases, melting point given:
cpd-smiles	melting point
O=C(NC1=Nc2ccccc2C2=NCCN12)c1ccccc1Cl.O=C(O)C(F)(F)F	221 to 224 °C
O/C(=C\C1=Nc2ccccc2C2=NCCN12)c1ccsc1	182 to 183 °C

Continue with the next molecule.
q: Give its melting point value. Item: COc1c(OCc2nn[nH]n2)ccc2c1N=C(/C=C(\O)c1cccnc1)N1CCN=C21.Cl
a: 217 to 218 °C

----------
target: Recombinant human PI3Kγ (full length human PI3K p110γ) (Homo sapiens, UniProt P48736); construct: full length human PI3K p110γ fused with a His6-tag at the C-terminus; His6 (C); purchased ALEXIS BIOCHEMICALS #201-055-C010; host or cells: S. frugiperda 9 insect cells; test: Kinase assay of PI3Kγ (solid-phase lipid kinase assay); assay type: biochemical; settings: Table 1, isozyme not given; read-out: in vitro
Sequence (P48736 whole entry, the tested form may be a part): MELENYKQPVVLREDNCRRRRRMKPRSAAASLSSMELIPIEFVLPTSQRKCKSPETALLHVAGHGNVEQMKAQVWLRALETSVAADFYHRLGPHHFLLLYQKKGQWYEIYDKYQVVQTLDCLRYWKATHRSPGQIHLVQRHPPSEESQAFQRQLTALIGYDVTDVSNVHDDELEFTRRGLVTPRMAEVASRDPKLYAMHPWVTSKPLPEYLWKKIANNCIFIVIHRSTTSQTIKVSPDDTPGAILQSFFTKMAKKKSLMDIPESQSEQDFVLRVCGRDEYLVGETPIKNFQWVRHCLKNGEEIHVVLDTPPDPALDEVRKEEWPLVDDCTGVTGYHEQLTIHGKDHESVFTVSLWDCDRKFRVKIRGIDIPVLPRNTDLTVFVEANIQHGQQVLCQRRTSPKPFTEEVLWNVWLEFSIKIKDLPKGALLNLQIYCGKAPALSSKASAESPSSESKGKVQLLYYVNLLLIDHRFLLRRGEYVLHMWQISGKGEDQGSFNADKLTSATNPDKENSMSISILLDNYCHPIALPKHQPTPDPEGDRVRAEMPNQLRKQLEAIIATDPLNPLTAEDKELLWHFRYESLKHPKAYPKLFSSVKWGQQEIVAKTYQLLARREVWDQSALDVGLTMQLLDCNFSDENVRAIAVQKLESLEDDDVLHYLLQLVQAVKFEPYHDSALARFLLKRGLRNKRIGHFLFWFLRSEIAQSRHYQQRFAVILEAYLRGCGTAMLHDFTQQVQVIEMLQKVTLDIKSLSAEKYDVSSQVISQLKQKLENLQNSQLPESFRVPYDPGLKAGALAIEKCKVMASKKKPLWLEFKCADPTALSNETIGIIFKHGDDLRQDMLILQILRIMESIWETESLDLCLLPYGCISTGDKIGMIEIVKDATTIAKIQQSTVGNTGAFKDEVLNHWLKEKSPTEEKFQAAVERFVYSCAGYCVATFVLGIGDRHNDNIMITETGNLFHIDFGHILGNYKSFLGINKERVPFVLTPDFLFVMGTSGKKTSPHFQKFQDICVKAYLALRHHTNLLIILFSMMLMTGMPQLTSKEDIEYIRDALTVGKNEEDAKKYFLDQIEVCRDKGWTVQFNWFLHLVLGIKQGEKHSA
pIC50: −log10 of the molar value.
pIC50: recorded values

Example cases with answers are listed next.
compound	system-under-test	pIC50
CC(=O)Nc1ccc(/C(O)=C/C2=Nc3ccccc3C3=NCCN23)cc1 [Example 1-133]	Recombinant human PI3Kγ (full length human PI3K p110γ) (Homo sapiens, UniProt P48736)	6.30 to 7.00
O/C(=C\C1=Nc2cnccc2C2=NCCN12)c1cccnc1 [Example 1-164]	Recombinant human PI3Kγ (full length human PI3K p110γ) (Homo sapiens, UniProt P48736)	6.30 to 7.00
Cl.O=C(O)CCc1ccc2c(c1)N=C(/C=C(\O)c1cccnc1)N1CCN=C21 [Example 1-201]	Recombinant human PI3Kγ (full length human PI3K p110γ) (Homo sapiens, UniProt P48736)	> 7.00
O/C(=C\C1=Nc2ccccc2C2=NCCN12)c1ccccc1 [Example 1-166]	Recombinant human PI3Kγ (full length human PI3K p110γ) (Homo sapiens, UniProt P48736)	5.70 to 6.30
CC(C)(C)/C(O)=C/C1=Nc2ccccc2C2=NCCN12 [Example 1-183]	Recombinant human PI3Kγ (full length human PI3K p110γ) (Homo sapiens, UniProt P48736)	5.70 to 6.30

We next turn to a different compound, shown below.
q: Form entry - test system: Recombinant human PI3Kγ (full length human PI3K p110γ) (Homo sapiens, UniProt P48736); read-out: pIC50; compound: O/C(=C\C1=Nc2ccccc2C2=NCCN12)c1ccsc1 [Example 1-148]
a: 6.30 to 7.00
